Target: T1, human GIP receptor (human) (UniProt P48546)
T1 sequence (looked up): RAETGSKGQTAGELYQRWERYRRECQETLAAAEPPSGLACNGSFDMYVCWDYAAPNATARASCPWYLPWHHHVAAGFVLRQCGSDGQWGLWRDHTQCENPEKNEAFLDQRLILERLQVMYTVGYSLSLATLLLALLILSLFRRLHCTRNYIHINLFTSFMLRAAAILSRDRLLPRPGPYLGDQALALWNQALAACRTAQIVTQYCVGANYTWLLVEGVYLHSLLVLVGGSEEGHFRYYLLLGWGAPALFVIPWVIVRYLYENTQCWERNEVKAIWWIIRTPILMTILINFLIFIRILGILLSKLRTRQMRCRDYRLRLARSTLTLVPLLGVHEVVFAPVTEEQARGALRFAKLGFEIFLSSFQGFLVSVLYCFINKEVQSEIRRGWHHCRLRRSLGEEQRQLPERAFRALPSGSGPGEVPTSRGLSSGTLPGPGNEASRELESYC
Experiment: cell-based or functional assay
*1 amine or outer side, *2 acyl side, *3 side chain or, on linkers, in order; H or OH if unused. Where no end group is shown, it is not given here. Side-chain parts run from the residue outwards. [ ]: non-standard residue; d: D form. The star is where a group is joined. C20 diacid = O=C(O)CCCCCCCCCCCCCCCCCCC(=O)*; C18 diacid = O=C(O)CCCCCCCCCCCCCCCCC(=O)*; γGlu = O=C(O)[C@H](CCC(=O)[*:2])N[*:1]; Nle = CCCC[C@H](N)C(=O)O; AEEA = NCCOCCOCC(=O)O; Aib = CC(C)(N)C(=O)O
Classes are defined on EC50 (pM), hGIP-R CRE Luc, 0.2% HSA with ranges one: < 40 pM; two: ≥ 40 pM and < 200 pM; three: ≥ 200 pM

Ac-[dY]AEGTFISDYSIA[Nle]DKIHQQDFVK([γGlu-γGlu-γGlu-4‑(aminomethyl)cyclohexanecarbonyl-C20 diacid])WLLAQKP-NH2 : two

Task: # bin lookup: classify Ac-[dY]AEGTFISDYSIA[Nle]DKIRQQDFVK([γGlu-γGlu-γGlu-4‑(aminomethyl)cyclohexanecarbonyl-C20 diacid])WLLAQKG by its EC50 (pM), hGIP-R CRE Luc, 0.2% HSA
Output: two

Task: Similarly, Y[Aib]EGTFISDYSIA[Nle]DKIRQ[Aib]DFVK([γGlu-γGlu-γGlu-C18 diacid])WLLAQKG ?
Output: one

Task: Similarly, Ac-[dY][Aib]EGTFISDYSIA[Nle]DKIHQQDFVK([γGlu-γGlu-γGlu-4‑(aminomethyl)cyclohexanecarbonyl-C20 diacid])WLLAQKP-NH2 ?
Output: one

Task: Similarly, Y[Aib]EGTFISDYSIA[Nle]DKIHQEDFVK([γGlu-γGlu-γGlu-γGlu-4‑(aminomethyl)cyclohexanecarbonyl-C20 diacid])WLLAQKG ?
Output: three

Task: Similarly, Ac-YAEGTFISDYSIA[Nle]DKIRQQDFVK([γGlu-γGlu-γGlu-C18 diacid])WLLAQKG ?
Output: three

Task: Similarly, Y[Aib]EGTFISDYSIALDKIHQQDFVK([AEEA-AEEA-γGlu-C18 diacid])WLLAQKGKKNDWKHNITQ ?
Output: two

Task: Similarly, Y[Aib]EGTFISDYSIA[Nle]DKIHQQDFVK([γGlu-γGlu-γGlu-4‑(aminomethyl)cyclohexanecarbonyl-C20 diacid])WLLAQKP-NH2 ?
Output: two

Task: Similarly, Ac-[dY]AEGTFISDYSIA[Nle]DKIRQQDFVK([AEEA-AEEA-γGlu-γGlu-γGlu-C18 diacid])WLLAQKG ?
Output: two
